assay.system: Human PD-L1/PD-1 (Homo sapiens, UniProt Q9NZQ7)
Construct: made in house; host or cells: HEK293T
Sequence (Q9NZQ7 with tags, fused parts or gaps): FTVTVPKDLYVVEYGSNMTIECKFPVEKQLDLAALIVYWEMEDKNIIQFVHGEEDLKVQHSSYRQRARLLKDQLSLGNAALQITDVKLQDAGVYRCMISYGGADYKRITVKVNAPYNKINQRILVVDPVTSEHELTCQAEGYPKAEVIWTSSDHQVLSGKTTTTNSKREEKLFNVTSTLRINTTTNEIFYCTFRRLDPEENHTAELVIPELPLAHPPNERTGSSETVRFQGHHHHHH
measurement.description: HTRF PD-1-Ig/PD-L1-His binding assay (human PD-L1)
condition.set: cluster symbol; read-out: HTRF IC50 cluster
Starred links: 1 amine or outer side, 2 acyl side, 3 side chain; linkers in the order of their positions; H or OH if unused. Positions of bridges follow the written chain, without caps; N, C: chain ends. Non-standard residues stand in square brackets, D forms with d. Residues, ends and D or L forms follow the SMILES beside them. ξ: configuration not given here. X14 = O=C([C@H](Cc1cc(F)c(F)c(Cl)c1)N[*:1])[*:2]; X1 = C[C@@H]1C[C@H](C(=O)[*:2])N([*:1])C1; Phe(2-Me) = Cc1ccccc1C[C@H](N)C(=O)O; Bta = N[C@@H](Cc1csc2ccccc12)C(=O)O; cisHyp = O=C(O)[C@@H]1C[C@H](O)CN1; NMeF = CN[C@@H](Cc1ccccc1)C(=O)O; dNMeNle = CCCC[C@@H](NC)C(=O)O; NMeNle = CCCC[C@H](NC)C(=O)O; NMeM = CN[C@@H](CCSC)C(=O)O; dPip = O=C(O)[C@H]1CCCCN1; hSer = N[C@@H](CCO)C(=O)O; NMeA = CN[C@@H](C)C(=O)O; Orn = NCCC[C@H](N)C(=O)O; dDap = NC[C@@H](N)C(=O)O; Dab = NCC[C@H](N)C(=O)O; Dap = NC[C@H](N)C(=O)O; ξP = O=C(O)C1CCCN1; ξC = NC(CS)C(=O)O; Sar = CNCC(=O)O
measure.name: IC50

Check out these entries, answers already filled in.
INSERT INTO results (compound, assay_system, readout_value) VALUES
  ('CCCC[C@H]1C(=O)N(C)CC(=O)N[C@@H](CC(=O)O)C(=O)N[C@@H](C(C)C)C(=O)N(C)[C@@H](Cc2ccccc2)C(=O)N[C@@H](Cc2ccc(O)cc2)C(=O)N(C)CC(=O)N[C@@H](Cc2c[nH]c3ccccc23)C(=O)N[C@@H](Cc2ccc(O)cc2)C(=O)N[C@@H](CC(C)C)C(=O)N[C@H](C(=O)NCC(N)=O)CSCC(=O)N[C@@H](Cc2cc(F)c(F)c(Cl)c2)C(=O)N(C)[C@@H](Cc2ccccc2)C(=O)N1C [Example 3186] ({CH2CO}-[X14][NMeF][NMeNle][Sar]DV[NMeF]Y[Sar]WYLCG-NH2; thioether N-13)', 'Human PD-L1/PD-1 (Homo sapiens, UniProt Q9NZQ7)', '6.76 to 30.3 nM'),
  ('CCCC[C@H]1C(=O)N2CCCC[C@@H]2C(=O)N[C@@H](CC(=O)O)C(=O)N[C@@H](C(C)C)C(=O)N(C)[C@@H](Cc2ccccc2)C(=O)N[C@@H](Cc2ccc(O)cc2)C(=O)N(C)CC(=O)N[C@@H](Cc2c[nH]c3ccccc23)C(=O)N[C@@H](Cc2ccc(O)cc2)C(=O)N[C@@H](CC(C)C)C(=O)N[C@H](C(=O)NCC(N)=O)CSCC(=O)N[C@@H](Cc2ccccc2)C(=O)N(C)[C@@H](Cc2ccccc2)C(=O)N1C [Example 3573] ({CH2CO}-F[NMeF][NMeNle][dPip]DV[NMeF]Y[Sar]WYLCG-NH2; thioether N-13)', 'Human PD-L1/PD-1 (Homo sapiens, UniProt Q9NZQ7)', '6.76 to 30.3 nM');

Problem: Given the compound CCCC[C@H]1C(=O)N(C)CC(=O)N[C@@H](CC(=O)O)C(=O)N[C@@H](C(C)C)C(=O)N(C)[C@@H](Cc2ccccc2)C(=O)N[C@@H](Cc2ccc(O)cc2)C(=O)N2C[C@H](C)C[C@@H]2C(=O)N[C@@H](Cc2c[nH]c3ccccc23)C(=O)N[C@@H](Cc2ccc(O)cc2)C(=O)N[C@@H](CC(C)C)C(=O)N[C@H](C(=O)NCC(N)=O)CSCC(=O)N[C@@H](Cc2ccccc2)C(=O)N(C)[C@@H](Cc2ccccc2)C(=O)N1C [Example 3578] ({CH2CO}-F[NMeF][NMeNle][Sar]DV[NMeF]Y[X1]WYLCG-NH2; thioether N-13) , write its reported IC50.
Result: 0.385 to 6.74 nM

Problem: Given the compound CCCC[C@H]1C(=O)N(C)CC(=O)N[C@@H](CC(=O)O)C(=O)N[C@@H](C(C)C)C(=O)N[C@@H](Cc2ccccc2C)C(=O)N[C@@H](Cc2ccc(O)cc2)C(=O)N(C)CC(=O)N[C@@H](Cc2c[nH]c3ccccc23)C(=O)N[C@@H](Cc2ccc(O)cc2)C(=O)N[C@@H](CC(C)C)C(=O)N[C@H](C(=O)NCC(N)=O)CSCC(=O)N[C@@H](Cc2ccccc2)C(=O)N(C)[C@@H](Cc2ccccc2)C(=O)N1C [Example 3133] ({CH2CO}-F[NMeF][NMeNle][Sar]DV[Phe(2-Me)]Y[Sar]WYLCG-NH2; thioether N-13) , write its reported IC50.
Result: > 30.5 nM

Problem: Given the compound CCCC[C@@H]1C(=O)N(C)[C@H](CCCC)C(=O)N[C@@H](CN)C(=O)N[C@@H](C(=O)NCC(N)=O)CSCC(=O)N[C@@H](Cc2ccc(O)cc2)C(=O)N2CCCC2C(=O)N[C@H](CC(=O)O)C(=O)N2CCC[C@H]2C(=O)N[C@H](CN)C(=O)N[C@@H](CC(=O)O)C(=O)N2CCCC2C(=O)N[C@H](Cc2c[nH]c3ccccc23)C(=O)N[C@@H](CCN)C(=O)N[C@@H](Cc2c[nH]c3ccccc23)C(=O)N1C (some centres unmarked) [Example 1212] ({CH2CO}-Y[ξP][dD]P[dDap]D[ξP][dW][Dab]W[dNMeNle][dNMeNle][Dap][dC]G-NH2; thioether N-14) , write its reported IC50.
Result: > 30.5 nM

Problem: Given the compound CCCC[C@H]1C(=O)N(C)[C@@H](CCSC)C(=O)N[C@@H](CCCNC(=N)N)C(=O)NC(C(=O)NCC(N)=O)CSCC(=O)N[C@@H](Cc2ccc(O)cc2)C(=O)N(C)[C@@H](C)C(=O)N[C@@H](CC(N)=O)C(=O)N2CCC[C@H]2C(=O)N[C@@H](Cc2cnc[nH]2)C(=O)N[C@@H](CC(C)C)C(=O)N2CCC[C@H]2C(=O)N[C@@H](Cc2c[nH]c3ccccc23)C(=O)N[C@@H](CO)C(=O)N[C@@H](Cc2csc3ccccc23)C(=O)N1C (some centres unmarked) [Example 9022] ({CH2CO}-Y[NMeA]NPHLPWS[Bta][NMeNle][NMeM]R[ξC]G-NH2; thioether N-14) , write its reported IC50.
Result: 0.385 to 6.74 nM

Problem: Given the compound CCCC[C@H]1C(=O)N(C)[C@@H](CCCC)C(=O)N[C@@H](CCCNC(=N)N)C(=O)NC(C(=O)NCC(N)=O)CSCC(=O)N[C@@H](Cc2ccc(O)cc2)C(=O)N(C)[C@@H](C)C(=O)N[C@@H](CC(N)=O)C(=O)N2CCC[C@H]2C(=O)N[C@@H](Cc2cnc[nH]2)C(=O)N[C@@H](CC(C)C)C(=O)N2CCC[C@H]2C(=O)N[C@@H](Cc2c[nH]c3ccccc23)C(=O)N[C@@H](CCO)C(=O)N[C@@H](Cc2c[nH]c3ccccc23)C(=O)N1C (some centres unmarked) [Example 9047] ({CH2CO}-Y[NMeA]NPHLPW[hSer]W[NMeNle][NMeNle]R[ξC]G-NH2; thioether N-14) , write its reported IC50.
Result: 0.385 to 6.74 nM

Problem: Given the compound CCCC[C@H]1C(=O)N(C)[C@@H](CCCC)C(=O)N[C@@H](CCCN)C(=O)N[C@H](C(=O)NCC(N)=O)CSCC(=O)N[C@@H](Cc2ccc(O)cc2)C(=O)N2CCC[C@H]2C(=O)N[C@@H](CC(=O)O)C(=O)N2CCC[C@H]2C(=O)N[C@@H](CN)C(=O)N[C@@H](CC(C)C)C(=O)N2C[C@@H](O)C[C@H]2C(=O)N[C@@H](Cc2c[nH]c3ccccc23)C(=O)N[C@@H](CO)C(=O)N[C@@H](Cc2c[nH]c3ccccc23)C(=O)N1C [Example 1149] ({CH2CO}-YPDP[Dap]L[cisHyp]WSW[NMeNle][NMeNle][Orn]CG-NH2; thioether N-14) , write its reported IC50.
Result: 6.76 to 30.3 nM
